This collection of values is drawn from ChEMBL document CHEMBL4673385.

experimental-system: Glucosyltransferase-S (Streptococcus mutans serotype c (strain ATCC 700610 / UA159))
protocol-summary: Inhibition of GtfD in Streptococcus mutans UA159 assessed as reduction in glucans level by Coomassie blue dye based SDS-PAGE analysis
Active and inactive are the calls of the source. The rule behind the calls is not given here.
experimental-endpoint: inhibition

Reference set (5 entries):
Provide the documented inhibition with Glucosyltransferase-S (Streptococcus mutans serotype c (strain ATCC 700610 / UA159)) as the system for NC(=O)c1ccccc1NC(=O)c1cnc2ccccc2c1 Active

For the record COC(=O)c1ccc(NC(=O)c2cc3cc([N+](=O)[O-])ccc3s2)cc1 , what value of inhibition is listed for Glucosyltransferase-S (Streptococcus mutans serotype c (strain ATCC 700610 / UA159))? Active

Provide value of inhibition for this record tested with Glucosyltransferase-S (Streptococcus mutans serotype c (strain ATCC 700610 / UA159)): O=C(c1ccc(F)cc1)c1ccc(-c2[nH]c(-c3ccc([N+](=O)[O-])cc3O)nc2-c2ccccc2)cc1 Active

// fetch Glucosyltransferase-S (Streptococcus mutans serotype c (strain ATCC 700610 / UA159)) inhibition for CC(C)(C)OC(=O)NCc1ccccc1NC(=O)c1cnc2ccccc2c1 Active

I'm curious: which inhibition was measured for CC(C)(C)OC(=O)NCc1ccccc1NC(=O)c1cc2cc([N+](=O)[O-])ccc2s1 tested on Glucosyltransferase-S (Streptococcus mutans serotype c (strain ATCC 700610 / UA159))? Active

***
Query the reported inhibition for Glucosyltransferase-S (Streptococcus mutans serotype c (strain ATCC 700610 / UA159)); item: NC(=O)c1cccc(NC(=O)c2cnc3ccccc3c2)c1 Active

Enter reported inhibition observed with Glucosyltransferase-S (Streptococcus mutans serotype c (strain ATCC 700610 / UA159)) for NC(=O)c1ccccc1NC(=O)c1cc2cc([N+](=O)[O-])ccc2s1 Active
